# Tested on: wheat (Triticum aestivum)
# protocol description: Test A postemergence
# Assay type: in vivo
# condition notes: Triticum aestivum, post-emergence, 240 h, 125 g ai/ha, postemergence, visual injury rating after approximately 10 d; read-out: Wheat plant response rating (0 to 100 scale, 0 no effect, 100 complete control)
measurement label: plant injury at 125 g/ha (%)
Quick note: give the figure in %, leave out the unit.

Exercise: plant injury at 125 g/ha lookup needed for "CN1CC[C@H](c2cccc(OC(F)(F)F)c2)[C@@H](C(=O)Nc2cccc(F)c2F)C1=O" , thanks.
Solution: 30

Exercise: plant injury at 125 g/ha lookup needed for "COc1c(F)ccc([C@H]2CNC(=O)[C@@H]2C(=O)Nc2ccc(F)c(F)c2F)c1Cl" , thanks.
Solution: 0

Exercise: plant injury at 125 g/ha lookup needed for "CN1C[C@H](c2cc(F)cc(F)c2)[C@@H](C(=O)Nc2ccccc2[S@+](C)[O-])C1=O" , thanks.
Solution: 20

Exercise: plant injury at 125 g/ha lookup needed for "N#Cc1cccc(NC(=O)[C@H]2C(=O)NC[C@@H]2c2cccc(C(F)(F)F)c2)c1F" , thanks.
Solution: 30

Exercise: plant injury at 125 g/ha lookup needed for "Cc1c(F)cccc1NC(=O)[C@H]1C(=O)N(C)C[C@@H]1c1cccc(COC(F)F)c1" , thanks.
Solution: 20

* * *

# Test system: barnyardgrass (Echinochloa crus-galli)
# protocol description: Test A postemergence
# Format: in vivo
# condition notes: Echinochloa crus-galli, post-emergence, 240 h, 125 g ai/ha, Postemergence, visual rating about 10 d after treatment; read-out: Barnyardgrass plant response rating (0 to 100 scale, 0 no effect, 100 complete control)
Outcome label depends on pest or weed control at 125 g/ha relative to 90%: at/above gives fulfilled, below gives not fulfilled.

Exercise: Is pest or weed control at 125 g/ha at least 90%? Consider CN1C[C@H](c2ccc3c(c2)OC(F)(F)O3)[C@@H](C(=O)Nc2cccnc2F)C1=O [Compound 1346]
Solution: not fulfilled

Exercise: Is pest or weed control at 125 g/ha at least 90%? Consider CN1C[C@H](c2ccc3c(c2)C(F)(F)C(F)(F)O3)[C@@H](C(=O)Nc2cccc(F)c2F)C1=O [Compound 1271]
Solution: not fulfilled

Exercise: Is pest or weed control at 125 g/ha at least 90%? Consider CN1C[C@H](c2csc3c2CCC3)[C@@H](C(=O)Nc2cccc(F)c2F)C1=O [Compound 1278]
Solution: fulfilled

Turning now to a further record.
Exercise: Is pest or weed control at 125 g/ha at least 90%? Consider CN1CC(c2cccc(OCC=C(Cl)Cl)c2)C(C(=O)Nc2cccc(F)c2F)C1=O (centres unmarked) [Compound 1303]
Solution: not fulfilled

* * *

# System: ryegrass, Italian (Italian ryegrass, Lolium multiflorum)
# protocol description: Test C preemergence
# Assay type: in vivo
# condition notes: 125 g ai/ha, scale 0 to 100, 0 no effect, 100 complete control
Overview of reported Plant response rating, Ryegrass, Italian across a group of compounds:
# answer = number (no unit)

Worked cases, answers included:
Exercise: Please provide the recorded Plant response rating, Ryegrass, Italian for CN1CC(c2cccc(OC(F)(F)C(F)F)c2)C(C(=O)Nc2ccc(F)cc2F)C1=O (stereo not shown) , tested on ryegrass, Italian (Italian ryegrass, Lolium multiflorum).
Solution: 30

Exercise: Please provide the recorded Plant response rating, Ryegrass, Italian for "CN1C[C@H](c2ccc(C(F)(F)F)cc2)[C@@H](C(=O)Nc2ccccc2F)C1=O" , tested on ryegrass, Italian (Italian ryegrass, Lolium multiflorum).
Solution: 35

Exercise: Please provide the recorded Plant response rating, Ryegrass, Italian for Cc1ccc(C2CN(C)C(=O)C2C(=O)Nc2cccc(F)c2F)cc1 (stereo not shown) , tested on ryegrass, Italian (Italian ryegrass, Lolium multiflorum).
Solution: 80

Further cases:
Exercise: Please provide the recorded Plant response rating, Ryegrass, Italian for Cc1ccc(C2CN(C)C(=O)C2C(=O)Nc2cccc(F)c2F)cc1F (stereo not shown) , tested on ryegrass, Italian (Italian ryegrass, Lolium multiflorum).
Solution: 70
